# apparent KD of MS2 coat protein per entry
# Test system: MS2 coat protein
# TEST_DESCRIPTION: apparent KD of MS2 coat protein; higher = weaker reporter binding
# TEST_CONTEXT: Eterna round: R107; input ligand: theophylline 20 uM
Reply numerically in µM, unit not repeated.

INPUT_SEQUENCE | TESTED_SYSTEM | apparent KD of MS2 coat protein, µM
CAAGCACCAACCGAUACCAGCUUAGUAGUAUGCUCAUUAAACAUGAGGAUCACCCAUGUGAGCCCUUGGCAGCGGAUUUCCCUGC [theeternabot_exclusion_MS2_Theo_B_12] | MS2 coat protein | 0.0183

QUERY: For AAGCGCACAUGAGGAUCACCCAUGUGCGGCCGAGGACCGGUACGGCCGCCACUCGGAACUAGAAAUAGGAACGGGUAGUGCGCAA [TryptophanA Sol_1] , write its apparent KD of MS2 coat protein.
RESULT: 0.0133

QUERY: For AGCACUGUGACGGCCGCCACUAUAUAUAGGGUGGUCAGGUUCAUAAUACAUGAGGAUCACCCAUGUAGGACCGGGUCUCAGUGCA [Omei Trp Exc B A v4] , write its apparent KD of MS2 coat protein.
RESULT: 0.0149

QUERY: For AACAUCACAACGGCCGCCACUGCACAUGACAACAUGAGGAUCACCCAUGUGGAUCACCCAUGUCCCAGGACCGGGUUAUGAGGAU [Same State - Tryptophan B #1] , write its apparent KD of MS2 coat protein.
RESULT: 0.0399

QUERY: For AACUGAAGCACCUUAUGCGGCGGCAAAACCCGAGGACCGGUACGGCCGCCACUCGAGUCGCAACAUGAGGAUCACCCAUGUGUAU [theeternabot_exclusion_MS2_Trp_A_30] , write its apparent KD of MS2 coat protein.
RESULT: 0.0558

###

# System: MS2 coat protein
# TEST_DESCRIPTION: apparent KD of MS2 coat protein, switch ON state; designed switch direction (-1 OFF switch, 1 ON switch): -1; higher = weaker reporter binding
# TEST_CONTEXT: FMN input: 0 or 200 uM; Eterna round: R93 (includes R88 designs)
MEASURE: apparent KD of MS2 coat protein (µM)
Reply numerically in µM, unit not repeated.

These solved cases illustrate the format of a correct answer.
INPUT_SEQUENCE | apparent KD of MS2 coat protein, µM
CUCUUGUCAGGAUAUUGAAGAAAAGAAAAGAAAGAAAAGAACAAGAAGGGACAUGAGGAUCACCCAUGUAAGAA [EteRNA is fun!] | 0.0742
ACGUCGGGAGGAUAUACAUGAGGAUCACCCAUGUAAAGCGGGAAAGACGUUUAGUCGAGUAGAAGGCCUGAAGU [JR_Exc003_Sub1709] | 0.0261
AAAUAGUUAGGAUAUACAUGAGGAUCACCCAUGUGCACUUAUGGAGAAUAGUGUAAUGGUAGAAGGGACUAAAA [EX2 Malc#23] | 0.0821

As a next step, examine the sequence that follows.
QUERY: For AAAAAAAAAGGAUAUACAGGAGGUAAGGUCGAAAAAAAAAAACAUGAGGAUCACCCAUGUAGAAGGUUUAAAAA [Excls2-VIII] , write its apparent KD of MS2 coat protein.
RESULT: 0.027

###

# Tested on: MS2 coat protein
# TEST_DESCRIPTION: apparent KD of MS2 coat protein; higher = weaker reporter binding
# TEST_CONTEXT: Eterna round: R107; input ligand: theophylline 20 uM
# apparent KD of MS2 coat protein per entry
Reply numerically in nM, unit not repeated.

These solved cases illustrate the format of a correct answer.
INPUT_SEQUENCE | MEASURE | REPORTED_VALUE
GGAUAGGACACGGCCGCCACUACCUAGGAUACUAGCAACAUUUGGGUGCACGAGGAUCACCCGUGUAGGACCGGGUGUCCUAUCG | apparent KD of MS2 coat protein | 115
AAUAUAUAUCACGAACUGUGGUGUAUGUUGCGAGGACCGGUACGGCCGCCACUCGACCGGUGGUACAUGAGGAUCACCCAUGUUG [XTryp A #10] | apparent KD of MS2 coat protein | 82

QUERY: For AAUAAGAGCUCGGAUACCAGCGAAAACAGGCACAUGAGGAUCACCCAUGUUAACGCACUGCGCCCUUGGCAGCCGCACGUGUGUC [theeternabot_sameState_MS2_Theo_B_39] , write its apparent KD of MS2 coat protein.
RESULT: 25.4

QUERY: For GGACUAACCAGAAGGAGCGGCACGCAGAAACUGCAAAUUCCUCCACACGAGGAUCACCCGUGUCAGGUAGGUCGCUGGUUAGUCG , write its apparent KD of MS2 coat protein.
RESULT: 30.6

QUERY: For ACAUGAGGAUCACCCAUGUAGCCUAGGGAAGGAGCGGCAUAAAAGCCAGGUAGGUCGCCCGCAUGAGGAUCACCCAUGUCAAGGA [Same State Arginine A GF7] , write its apparent KD of MS2 coat protein.
RESULT: 81.7

###

# Tested on: MS2 coat protein
# TEST_DESCRIPTION: apparent KD of MS2 coat protein; higher = weaker reporter binding
# TEST_CONTEXT: Eterna round: R107; input ligand: theophylline 20 uM
# apparent KD of MS2 coat protein per entry
Reply numerically in µM, unit not repeated.

These solved cases illustrate the format of a correct answer.
INPUT_SEQUENCE | REPORTED_VALUE
UAUCCACAUGAGGAUCACCCAUGUUAGGAAGGAGCGGUGAAUGAACCAGGUAGGUCGCCUAGCUGAGGACCAUCAAUGGAUUCGU [Exclusion - Arginine A (Freestyle 14)] | 0.0354
CGUACAUGAGGAUCACCCAUGUUACAUGAUACCAGACAUGAAAAUGUCCCUUGGCAGCAUGGCGCUGAUAGGGCGGGAAACCCGA [Zabovresky] | 0.0232
UCGCUCUGGGUGAAUCCCAGAGAUAUGGAAGGAGCGGACGAAAGUCCAGGUAGGUCGCCAUCGAACAUGAGGAUCACCCAUGUAC [Same State - Arginine A (Freestyle 27)] | 0.0578
GCGCUCGACAGAAGGAGCGGCGACGUCGGUGUCAGGAGGCACAUGAGGAUCACCCAUGUCAGCCAGGUAGGUCGCUGUCGAUCGC [Arquce] | 0.0419
ACGAUGCGACAUGAGGAUCACCCAUGUGAUACCAGCCUGGAAACAGGCCCUUGGCAGCACAAAUACUCCAGAAACGCAUCGAAUA [MAT - Exclusion Theophlline A - Mod of Eli - D3] | 0.356

As a next step, examine the sequence that follows.
QUERY: For CUACAUUUGUAGAAACCGGUCAACAAUAAUCGAGGACCGGUACGGCCGCCACUCGAUGUGAAAUACACAUGAGGAUCACCCAUGU [Tryptophan A 13] , write its apparent KD of MS2 coat protein.
RESULT: 0.0191

###

# Test system: MS2 coat protein
# TEST_DESCRIPTION: apparent KD of MS2 coat protein; designed switch direction (-1 OFF switch, 1 ON switch): -1; higher = weaker reporter binding
# TEST_CONTEXT: Eterna round: R95; input ligand: FMN 200 uM
# apparent KD of MS2 coat protein per entry
Reply numerically in nM, unit not repeated.

INPUT_SEQUENCE | TESTED_SYSTEM | MEASURE | REPORTED_VALUE
CAUGGAACGUAGGAUAUCUCACAGCCAGGCUGCAGAGAAGGACGUACAUGAGGAUCACCCAUGUAUGAUCCAAA [Tius] (puzzle: Exclusion 6) | MS2 coat protein | apparent KD of MS2 coat protein | 26.9
AAGUACCGUCACGAAAGUGAUGGUACAACAAGUAAAUGUACAUGAGGAUCACCCAUGUCCUCAAUUGCUCGUCUUAU [Sensor 3 - 60] (puzzle: Sensor v3, turn-off variant 2) | MS2 coat protein | apparent KD of MS2 coat protein | 722

QUERY: For GGUUGGCGAGGAUAUACAUGAGGAUCACCCAUGUGAGAGGAAAAAGUGAGGAAGAAAAGUAGAAGGCGCUGACG [salish99_ex3_r3_002] (puzzle: Exclusion 3) , write its apparent KD of MS2 coat protein.
RESULT: 142

QUERY: For UUUUUAUUUUUUUAUUUUGACAUGAGGAUCACCCAUGUAACGAGCAGAUCUUCAUGCAAGCUUUUUGCUCGUCUUAU [Sensor v3 - Turn-off variant 1 - 41] (puzzle: Sensor v3, turn-off variant 1) , write its apparent KD of MS2 coat protein.
RESULT: 69.1

QUERY: For AGUAGAUCUACGCUUGCGUGGAUCUGCAUUGCAAGUGUAACAUGAGGAUCACCCAUGUCCUCAUUUGCUCGUCUUAU [JL turnoff v2 99.02] (puzzle: Sensor v3, turn-off variant 2) , write its apparent KD of MS2 coat protein.
RESULT: 54.4
